# System: HT29 Human Colon Carcinoma cell line
# experiment: In vitro growth inhibition (MTT), HT29 colon carcinoma
# Type: cell-based
# conditions_used: 6 days
measured_attribute: IC50 (nM)
Express your answer in nM, writing the number without its unit.

Reference set (2 entries):
compound	measurement_target	IC50 / nM
O=C1c2cccc3cc([N+](=O)[O-])cc(c23)C(=O)N1CCNCCS(=O)(=O)CCN1C(=O)c2cccc3cc([N+](=O)[O-])cc(c23)C1=O	HT29 Human Colon Carcinoma cell line	22
O=C1c2cccc3cc([N+](=O)[O-])cc(c23)C(=O)N1CCNCC[S+]([O-])CCN1C(=O)c2cccc3cc([N+](=O)[O-])cc(c23)C1=O (stereo not drawn) [Compound 12]	HT29 Human Colon Carcinoma cell line	1.7

# context switch: different compound, same IC50
Task item: GET IC50 | system: HT29 Human Colon Carcinoma cell line | item: O=C1c2cccc3cc([N+](=O)[O-])cc(c23)C(=O)N1CCNCC[S+]([O-])CCN1C(=O)c2cccc3cc([N+](=O)[O-])cc(c23)C1=O (stereo not drawn) [Compound 13]
Reply: 0.2
